# Tested on: XOR-6
# assay.protocol: cotransfection assay, activation of XOR-6 in transfected CV-1 cells
# Format: cell-based, Xenopus laevis
# condition.info: transfected CV-1 cells
reported.property: activation of XOR-6 (agonist activity in the cotransfection assay)

>  <molecule>
CCOC(=O)c1ccc(N)cc1 [4-AEB, 4-amino-ethyl benzoate]

>  <observed.measurement>
activated

$$$$
>  <molecule>
CCOC(=O)c1ccccc1N

>  <observed.measurement>
activated

$$$$
